Reference source for all entries: patent US20160257732A1

List of Neutralization IC50, H5-HK03 values.
target: HA of ca A/Hong Kong/213/03 (H5N1) (influenza A virus); assay: cell-based or functional assay
The reply must contain the numeric value and, after it, the unit.

Some entries whose results are on file:
Quick check: Neutralization IC50, H5-HK03 of Antibody 13 (antibody, V domains shown) VH: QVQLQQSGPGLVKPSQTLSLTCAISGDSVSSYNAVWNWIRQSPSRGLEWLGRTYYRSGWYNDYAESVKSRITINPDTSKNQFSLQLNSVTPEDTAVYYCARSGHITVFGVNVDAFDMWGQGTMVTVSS VL: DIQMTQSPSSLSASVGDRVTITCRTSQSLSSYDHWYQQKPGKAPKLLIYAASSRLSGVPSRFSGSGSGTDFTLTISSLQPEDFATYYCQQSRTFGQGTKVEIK ?
0.17 µg/mL

Requested read-out: Neutralization IC50, H5-HK03. Entry: Antibody 11 (antibody, V domains shown) VH: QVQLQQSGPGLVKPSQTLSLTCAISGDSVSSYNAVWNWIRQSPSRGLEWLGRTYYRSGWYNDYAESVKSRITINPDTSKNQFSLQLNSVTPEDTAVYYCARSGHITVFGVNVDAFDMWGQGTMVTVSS VL: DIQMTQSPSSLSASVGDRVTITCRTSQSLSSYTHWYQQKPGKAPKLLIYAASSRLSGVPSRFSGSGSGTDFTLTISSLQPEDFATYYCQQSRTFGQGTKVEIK
0.21 µg/mL

Which Neutralization IC50, H5-HK03 is listed for Antibody 12 (antibody, V domains shown) VH: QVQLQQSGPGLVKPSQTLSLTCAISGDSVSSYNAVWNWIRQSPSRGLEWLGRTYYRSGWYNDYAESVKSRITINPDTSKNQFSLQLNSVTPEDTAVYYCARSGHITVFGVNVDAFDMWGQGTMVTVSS VL: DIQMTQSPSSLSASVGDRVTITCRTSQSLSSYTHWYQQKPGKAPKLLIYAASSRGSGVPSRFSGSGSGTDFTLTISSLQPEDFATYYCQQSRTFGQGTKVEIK ?
0.17 µg/mL

Continuing:
Which Neutralization IC50, H5-HK03 is listed for Antibody 14 (antibody, V domains shown) VH: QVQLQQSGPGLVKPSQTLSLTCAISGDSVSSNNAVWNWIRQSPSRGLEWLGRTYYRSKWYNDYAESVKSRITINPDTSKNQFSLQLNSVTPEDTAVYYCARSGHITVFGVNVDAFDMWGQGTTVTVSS VL: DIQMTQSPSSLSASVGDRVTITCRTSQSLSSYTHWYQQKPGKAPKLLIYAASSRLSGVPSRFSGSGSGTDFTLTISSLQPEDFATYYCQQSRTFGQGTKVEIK ?
0.21 µg/mL

Suppose we examine the binder Antibody 3 (antibody, V domains shown) VH: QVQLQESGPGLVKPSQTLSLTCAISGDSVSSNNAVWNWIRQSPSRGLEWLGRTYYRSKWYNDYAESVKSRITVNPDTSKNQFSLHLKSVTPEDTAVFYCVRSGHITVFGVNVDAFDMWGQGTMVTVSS VL: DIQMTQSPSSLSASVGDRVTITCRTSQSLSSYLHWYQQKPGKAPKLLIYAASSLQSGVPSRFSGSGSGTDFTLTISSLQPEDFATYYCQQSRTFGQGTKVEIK ; what Neutralization IC50, H5-HK03 value has been reported?
0.71 µg/mL

Request the reported Neutralization IC50, H5-HK03 associated with Antibody 15 (antibody, V domains shown) VH: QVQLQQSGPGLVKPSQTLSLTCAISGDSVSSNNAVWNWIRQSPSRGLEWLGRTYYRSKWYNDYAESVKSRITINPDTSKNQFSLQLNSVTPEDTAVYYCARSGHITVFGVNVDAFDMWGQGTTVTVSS VL: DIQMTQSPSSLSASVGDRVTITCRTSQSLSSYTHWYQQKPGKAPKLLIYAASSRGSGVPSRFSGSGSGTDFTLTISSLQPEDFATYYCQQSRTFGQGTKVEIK
0.05 µg/mL
